Data credit: patent US20250122183A1

Record form. Attribute: Ki. Fill in for each entry.
Biological target: KAT7+JADE1+EAF6+ING5 4 protein complex (Homo sapiens (Human), UniProt O95251)
Experiment: KAT7 JADE1 assay (SAMDI-MS acetylation of H3 1-21 peptide)
Assay type: biochemical
Conditions: Morrison equation fit; replicate number in parentheses; read-out: KAT7 JADE1 Ki (nM) (replicate number)
One number for each entry, in nM.

>>> print(df.to_string())
                                   molecule  observable  value_units  value_reported
0  COCc1cc(Nc2cc3onc(NS(=O)(=O)c4c(OC)cccc4OC)c3cc2OC)[nH]n1 [Example 91]          Ki           nM             802

For every item below, please supply its Ki.
1. COc1cccc(F)c1S(=O)(=O)Nc1noc2cc(Nc3cc(C4CC4)n[nH]3)c(F)c(OC)c12 [Example 81]
2. COc1cc2c(NS(=O)(=O)c3c(OC)cc(C4CCCCO4)cc3OC)noc2cc1Nc1cc(C2CC2)n[nH]1 (single isomer, unassigned) [Example 143]
3. CCc1cc(Nc2cc3onc(NS(=O)(=O)c4ccc(C(F)(F)F)cc4Cl)c3cc2OC)n[nH]1 [Example 124]
4. COc1cc2c(NS(=O)(=O)c3c(OC)cccc3OC)noc2cc1Nc1cc(C(C)CCO)[nH]n1 (stereo not shown) [Example 88]
5. COc1cc2c(NS(=O)(=O)c3c(OC)cc([C@H]4COCCO4)cc3OC)noc2cc1Nc1cc(C2CC2)[nH]n1 [Example 146]
6. CCc1cc(Nc2cc3onc(NS(=O)(=O)c4ccc(C(=O)NCCCCCN)cc4OC)c3cc2OC)[nH]n1 [Example 96]
7. CCc1cc(Nc2cc3onc(NS(=O)(=O)c4c(OC)cc(-c5cccc(C)n5)cc4OC)c3cc2OC)[nH]n1 [Example 231]

Result:
1. 31.6
2. 9.6
3. 47.9
4. 378
5. 3.2
6. 103
7. 8.8

Q: Please indicate Ki recorded for CCn1ccc(Nc2cc3onc(NS(=O)(=O)c4c(OC)cccc4OC)c3cc2OC)n1 [Example 39]
Result: 175

* * *

Record form. Attribute: Ki. Fill in for each entry.
Target: KAT7+JADE1+EAF6+ING5 4 protein complex (Homo sapiens (Human), UniProt O95251)
Experiment: KAT7 JADE1 assay (SAMDI-MS acetylation of H3 1-21 peptide)
Type: biochemical
Conditions: Morrison equation fit; replicate number in parentheses; read-out: KAT7 JADE1 Ki (nM) (replicate number)

For every item below, please supply its Ki.
1. COc1cc2c(NS(=O)(=O)c3c(OC)cccc3OC)noc2cc1Nc1cc(C)nn1C
2. COc1cccc(OC)c1S(=O)(=O)Nc1noc2cc(NC3CCCC3)cc(OC)c12

Result:
> 12500 nM
> 2340 nM

For every item below, please supply its Ki.
1. COc1cc2c(NS(=O)(=O)c3c(OC)cc(-c4ncc(C#N)cn4)cc3OC)noc2cc1Nc1cc(C2CC2)n[nH]1
2. COc1cc2c(NS(=O)(=O)c3c(OC)cc(C4COC(C)(C)CO4)cc3OC)noc2cc1Nc1cc(C2CC2)n[nH]1 (single isomer, unassigned) [Example 186]

Result:
1: 7.2 nM; 2: 3.6 nM

For every item below, please supply its Ki.
1. COc1cc2c(NS(=O)(=O)c3c(OC)cc(-c4ccncc4)cc3OC)noc2cc1Nc1cc(C2CC2)n[nH]1
2. COc1cc2c(NS(=O)(=O)c3c(OC)cc(C4COCC(C)(C)O4)cc3OC)noc2cc1Nc1cc(C2CC2)n[nH]1 (single isomer, unassigned) [Example 183]
3. COc1cc2c(NS(=O)(=O)c3c(OC)cc(C4CCCN([C@@H]5CCOC5)C4)cc3OC)noc2cc1Nc1cc(C2CC2)n[nH]1 (single isomer, unassigned) [Example 159]
4. CCc1cc(Nc2cc3onc(NS(=O)(=O)c4c(OC)cccc4OC)c3cc2OC)nn1C
5. COc1ccccc1S(=O)(=O)Nc1noc2cc(Nc3cc[nH]n3)cc(OC)c12

Result:
["10.8 nM", "5.7 nM", "7 nM", "31.3 nM", "202 nM"]

Q: Please indicate Ki recorded for CCc1cc(Nc2cc3onc(NS(=O)(=O)c4ccc(Oc5ccccc5)cc4)c3cc2OC)n[nH]1
Result: 410 nM
